assay: small molecules binding CAG repeat RNA – biochemical, fluorescence, confirmation (AID 652065); conditions: r(CAG) RNA repeat, TO-PRO-1 dye displacement fluorescence; at 3 µM; stronger effect = higher value;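 also: loss of TO-PRO-1 fluorescence as compound displaces dye from 1x1 AA loop RNA; 0% = DMSO only wells and 100% = 100 µM mitoxantrone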
Among all 4,300 compounds or so, about 3,000 (70%) were called active. So high a share suggests a set chosen from earlier hits. Only a sample is shown.
property label: inhibition (%)
Enter your answer as a number in %; do not include the unit.

IN: // inhibition lookup, key: `COc1ccc2[nH]c3c(C)c4cc[n+](C)cc4c(C)c3c2c1`
OUT: 47.5

IN: # input compound: CCOC(=O)c1ccccc1N1C(=O)C2Sc3[nH]c(=O)sc3C(/C=C/c3ccccc3)C2C1=O (stereo unspecified) ; wanted: its inhibition
OUT: 46.1

IN: What value of inhibition has been reported for the following compound? `N#Cc1c(-c2ccccc2)nc(SCc2ccc([N+](=O)[O-])cc2)[nH]c1=O`
OUT: 58.7

IN: What measured inhibition goes with NC(c1csc(NC(=O)Nc2cccc(C(F)(F)F)c2)n1)C1CCCCC1 (stereo unspecified) ?
OUT: 24.4

IN: # query: inhibition of entry Cc1cccc(C)c1NC(=O)C(c1ccc(C(F)(F)F)cc1)n1c(=O)c(-c2ccco2)nc2ccccc21 (stereo unspecified)
OUT: 26.2

IN: Reported inhibition, compound COc1ccc(-c2cc(C(=O)NC(Cc3c[nH]c4ccccc34)C(=O)O)c(C)o2)cc1OC (stereo unspecified) : ____
OUT: 61.4

IN: // query inhibition value for entry CC(C)(C)C1C/C(=C/c2ccco2)C(=O)/C(=C/c2ccco2)C1 (stereo unspecified)
OUT: 44.2

IN: Record request: inhibition value, item `Cc1ccccc1OCC(=O)Nc1nnc(S(=O)(=O)N2CCCC2)s1`
OUT: 33.1

IN: Please give the measured inhibition for this compound: C[C@H]([C@@H](O)[C@@H](O)[C@@H](C)C(C)(C)C)[C@H]1CC[C@H]2C3CC[C@H]4C[C@H](OS(=O)(=O)O)[C@@H](OS(=O)(=O)O)C[C@]4(C)[C@H]3CC[C@]12C (stereo partly specified)
OUT: 87.8

IN: So what does the record say about inhibition for `Cc1ccc(S(=O)(=O)Nc2nc3ccccc3s2)cc1[N+](=O)[O-]` ?
OUT: 29.7

IN: Which inhibition value is on record for `CCOC(=O)c1csc(NC(=O)Nc2cccc(OC)c2)n1` ?
OUT: 29.9

IN: Item `O=C(O)CC/C(=C\c1cc2c(cc1Br)OCO2)c1nc2ccccc2s1` has what recorded inhibition?
OUT: 50.5

IN: Sample CCc1ccc(N2CC(C(=O)Nc3ccc(S(=O)(=O)Nc4nccs4)cc3)CC2=O)cc1 (stereo unspecified) — what was its inhibition?
OUT: 42

IN: Return reported inhibition; argument: `O=C(Nc1ccccc1)Nc1nc2ccccc2s1`
OUT: 13.2

IN: Which inhibition value belongs to `COCCNC(=O)Nc1ccc2nc(-c3ccco3)c(-c3ccco3)nc2c1` ?
OUT: 61.6

IN: inhibition lookup needed for `O=C(NNc1c2ccccc2nc2ccccc12)c1cc2ccccc2cc1O` , thanks.
OUT: 45.6

IN: What inhibition value was documented for this compound, `Cc1ccc([C@@H]2CC=C(C(=O)O)[C@H](c3cccc(Cl)c3)N2S(=O)(=O)c2ccc(C)cc2)cc1` ?
OUT: 80.4

IN: Item `Cc1oc2c(F)c(F)c(F)c(F)c2c1S(=O)(=O)Nc1cccc(C(F)(F)F)c1` has what recorded inhibition?
OUT: 44.5

IN: Recorded inhibition of `Cc1cccc(OCC(=O)Nc2ccc(C(=O)O)cc2NC(=O)COc2cccc(C)c2)c1` , please.
OUT: 44.8

IN: Given `Cc1ccc(NC(=O)Nc2nnc(-c3ccncc3)s2)cc1` , state its recorded inhibition.
OUT: 25.5

IN: Would you kindly share the measured inhibition for C=C1c2c(Cl)ccc(O)c2C(O)=C2C(=O)[C@]3(O)C(O)=C(C(N)=O)C(=O)[C@@H](N(C)C)[C@@H]3[C@@H](O)C12 (stereo partly specified) ?
OUT: 70.9

IN: Sample `Cc1ccc(CSc2nc(-c3ccccc3)c(C#N)c(=O)[nH]2)cc1` — what was its inhibition?
OUT: 66.6

IN: Report inhibition for `O=C1CC(c2ccccc2)=NN1c1ccc([N+](=O)[O-])cc1` please.
OUT: 23.7

IN: Using the record for COc1ccc(C(CNC(=O)c2cccc(S(=O)(=O)Nc3ccccc3Cl)c2)N2CCOCC2)cc1 (stereo unspecified) , report its inhibition.
OUT: 63.9

IN: # query: inhibition of entry `Cc1cc(C)cc(OCC(=O)Nc2cc(NC(=O)COc3cc(C)cc(C)c3)cc(C(=O)O)c2)c1`
OUT: 78.6

IN: Item `Cc1cc(/C=C2/C(=N)N3C(=NC2=O)SN=C3S(C)(=O)=O)c(C)n1-c1ccccc1` has what recorded inhibition?
OUT: 81.7

IN: Field request: inhibition | item: `Cc1cc(/C=N/Nc2ccc([N+](=O)[O-])cn2)c(C)n1-c1cccc(C(=O)O)c1`
OUT: 35

IN: Entry under review: `O=c1cc(CN2CCN(S(=O)(=O)/C=C/c3ccccc3)CC2)c2ccc(O)cc2o1` . Reported inhibition?
OUT: 22.5

IN: Recorded inhibition of `COc1ccc(C(=O)Nc2cccc(/C=C(/CCC(=O)O)c3nc4ccccc4s3)c2)cc1` , please.
OUT: 72.8

IN: # inhibition lookup, item CCOC(=O)C1Nc2ccc(C(F)(F)F)cc2C2C=CCC12 (stereo unspecified)
OUT: 18.9

IN: Please give the measured inhibition for this compound: `O=C(N/N=C/c1c(Cl)[nH]c2ccccc12)c1sc2ccccc2c1Cl`
OUT: 22.9
